// provenance: paper PMC7719162

molecular target: GSK3β (Homo sapiens); experiment: GSK3β radiolabelled kinase assay (% residual activity, IC50, ATP competition); type: biochemical; details: ATP 10 µM; 10-dose, threefold dilution from 10 μM; read-out: IC50 of GSK3β activity
measured_property: IC50 (µM)
Kindly provide the numeric value in µM only, without the unit symbol.

The compound O=C1C=CC2(C=C1)OCC(Cc1cn(-c3cccc(Cc4ccccc4)c3)nn1)C(=O)N2c1ccccc1 (stereo not shown) [2j] showed IC50 equal to 3.53

* * *

target: GSK3β (Homo sapiens); assay: GSK3β radiolabelled kinase assay (% residual activity, IC50, ATP competition); format: biochemical; details: ATP 200 µM; 10-dose, threefold dilution from 10 μM; read-out: IC50 of GSK3β activity
measured_property: IC50 (µM)
Kindly provide the numeric value in µM only, without the unit symbol.

The compound O=C1C=CC2(C=C1)OCC(Cc1cn(-c3cccc(Cc4ccccc4)c3)nn1)C(=O)N2c1ccccc1 (stereo not shown) [2j] showed IC50 equal to 3.45

* * *

Target: PI3KC3 (Homo sapiens)
Construct: purchased Reaction Biology Corp
Sequence (Q8NEB9 whole entry): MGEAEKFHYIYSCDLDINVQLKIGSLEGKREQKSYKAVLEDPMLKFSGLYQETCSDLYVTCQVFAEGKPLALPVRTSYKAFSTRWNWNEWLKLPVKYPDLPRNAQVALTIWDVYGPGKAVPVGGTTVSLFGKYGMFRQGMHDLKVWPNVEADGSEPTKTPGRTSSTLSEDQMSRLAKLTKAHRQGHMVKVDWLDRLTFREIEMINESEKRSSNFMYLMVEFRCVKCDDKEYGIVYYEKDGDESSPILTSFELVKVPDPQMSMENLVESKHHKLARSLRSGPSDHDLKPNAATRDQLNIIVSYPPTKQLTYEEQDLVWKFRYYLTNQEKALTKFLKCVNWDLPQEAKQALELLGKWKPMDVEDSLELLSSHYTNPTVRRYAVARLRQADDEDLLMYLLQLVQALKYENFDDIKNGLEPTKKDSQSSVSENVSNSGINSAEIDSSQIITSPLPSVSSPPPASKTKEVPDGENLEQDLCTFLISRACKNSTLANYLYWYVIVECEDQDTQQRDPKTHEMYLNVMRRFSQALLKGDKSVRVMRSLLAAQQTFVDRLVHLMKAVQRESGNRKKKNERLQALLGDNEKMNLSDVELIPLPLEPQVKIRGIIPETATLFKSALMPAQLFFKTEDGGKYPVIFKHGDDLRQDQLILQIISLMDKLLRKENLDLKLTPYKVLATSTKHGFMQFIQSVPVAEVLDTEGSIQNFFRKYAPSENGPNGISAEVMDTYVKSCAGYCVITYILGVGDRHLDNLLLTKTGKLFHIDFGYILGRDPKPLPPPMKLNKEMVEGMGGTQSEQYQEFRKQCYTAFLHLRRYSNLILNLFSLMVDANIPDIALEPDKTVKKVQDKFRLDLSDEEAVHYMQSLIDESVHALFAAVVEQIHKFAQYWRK
Test: Kinase panel assay (lipid kinase)
Assay type: biochemical
Settings: control PIK-93
Method: Every inhibitory activity of tested compounds was measured by radiolabelled method of Reaction Biology Corp). The radiolabelled ATP ([γ-^33P] ATP) replaced a substrate with ^33P-phosphorylated substrate so that the activity of a kinase was measured from the radiolabelled phosphorylated substrate. […] The concentration of DMSO was controlled and raw data, % kinase activity was calculated relative to DMSO controls.
measured_property: IC50

The compound CC(=O)Nc1nc(C)c(-c2ccc(Cl)c(S(=O)(=O)NCCO)c2)s1 [PIK-93, reference compound] showed IC50 equal to 75.7 nM

* * *

target: GSK3β (Homo sapiens, UniProt P49841); test: GSK3β radiolabelled kinase assay (% residual activity, IC50, ATP competition); format: biochemical; details: at 10 μM compound
Sequence (P49841 whole entry): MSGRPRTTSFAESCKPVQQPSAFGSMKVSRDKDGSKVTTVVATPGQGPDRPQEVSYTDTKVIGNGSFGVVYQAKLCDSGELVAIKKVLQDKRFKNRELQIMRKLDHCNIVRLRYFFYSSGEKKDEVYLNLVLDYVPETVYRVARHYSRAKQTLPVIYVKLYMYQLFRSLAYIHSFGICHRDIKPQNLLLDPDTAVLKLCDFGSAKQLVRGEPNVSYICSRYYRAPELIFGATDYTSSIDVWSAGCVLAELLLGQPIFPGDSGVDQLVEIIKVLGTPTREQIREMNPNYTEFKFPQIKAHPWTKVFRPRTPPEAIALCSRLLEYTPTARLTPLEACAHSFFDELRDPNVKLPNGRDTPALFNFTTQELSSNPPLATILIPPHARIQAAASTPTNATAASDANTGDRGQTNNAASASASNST
API: label(entry) gives Yes if the entry's remaining activity at 10 µM is strictly smaller than 60%; on equality or larger values it gives No.

Just wondering, is remaining activity at 10 µM of Cc1cc(=O)oc2cc(-n3cc(CC4COC5(C=CC(=O)C=C5)N(c5ccccc5)C4=O)nn3)ccc12 (centres unmarked) [2p] below 60%? Yes

Just wondering, is remaining activity at 10 µM of O=C1C=CC2(C=C1)OCC(Cc1cn(-c3cccc(Cl)c3)nn1)C(=O)N2c1ccccc1 (centres unmarked) [2d] below 60%? Yes

Just wondering, is remaining activity at 10 µM of CSc1ccc(-n2cc(CC3COC4(C=CC(=O)C=C4)N(c4ccccc4)C3=O)nn2)cc1 (centres unmarked) [2i] below 60%? No

Just wondering, is remaining activity at 10 µM of O=C1C=CC2(C=C1)OCC(Cc1ccccc1)C(=O)N2c1ccccc1 (centres unmarked) [1a] below 60%? No

Just wondering, is remaining activity at 10 µM of O=C1C=CC2(C=C1)OCC(Cc1cn(-c3ccccc3)nn1)C(=O)N2c1ccccc1 (centres unmarked) [2a] below 60%? No

Just wondering, is remaining activity at 10 µM of O=C1C=CC2(C=C1)OCC(Cc1cn(-c3ccc(Br)cc3)nn1)C(=O)N2c1ccccc1 (centres unmarked) [2e] below 60%? No

Just wondering, is remaining activity at 10 µM of COc1ccc(-n2cc(CC3COC4(C=CC(=O)C=C4)N(c4ccccc4)C3=O)nn2)cc1 (centres unmarked) [2h] below 60%? No

Just wondering, is remaining activity at 10 µM of CC(=O)Nc1ccc(-n2cc(CC3COC4(C=CC(=O)C=C4)N(c4ccccc4)C3=O)nn2)cc1 (centres unmarked) [2l] below 60%? No

Just wondering, is remaining activity at 10 µM of C#CCC1COC2(C=CC(=O)C=C2)N(c2ccccc2)C1=O (centres unmarked) [compound 7] below 60%? Yes

Just wondering, is remaining activity at 10 µM of O=C1C=CC2(C=C1)OCC(Cc1cn(-c3ccc4c(c3)OCO4)nn1)C(=O)N2c1ccccc1 (centres unmarked) [2o] below 60%? No

Just wondering, is remaining activity at 10 µM of O=C1C=CC2(C=C1)OCC(Cc1cn(-c3cccc(Cc4ccccc4)c3)nn1)C(=O)N2c1ccccc1 (centres unmarked) [2j] below 60%? Yes

Just wondering, is remaining activity at 10 µM of O=C1C=CC2(C=C1)OCC(Cc1cn(-c3ccc(S(=O)(=O)C(F)(F)F)cc3)nn1)C(=O)N2c1ccccc1 (centres unmarked) [2k] below 60%? Yes

Just wondering, is remaining activity at 10 µM of O=C1C=CC2(C=C1)OCC(Cc1cn(-c3cccnc3)nn1)C(=O)N2c1ccccc1 (centres unmarked) [2b] below 60%? No

Just wondering, is remaining activity at 10 µM of COc1cc(-n2cc(CC3COC4(C=CC(=O)C=C4)N(c4ccccc4)C3=O)nn2)ccc1F (centres unmarked) [2n] below 60%? No

Just wondering, is remaining activity at 10 µM of N#Cc1cccc(-n2cc(CC3COC4(C=CC(=O)C=C4)N(c4ccccc4)C3=O)nn2)c1 (centres unmarked) [2g] below 60%? Yes

Just wondering, is remaining activity at 10 µM of O=C1C=CC2(C=C1)OCC(Cc1cn(-c3ccc(F)cc3)nn1)C(=O)N2c1ccccc1 (centres unmarked) [2c] below 60%? No

Just wondering, is remaining activity at 10 µM of COc1cc(OC)cc(-n2cc(CC3COC4(C=CC(=O)C=C4)N(c4ccccc4)C3=O)nn2)c1 (centres unmarked) [2m] below 60%? No

Just wondering, is remaining activity at 10 µM of O=C1C=CC2(C=C1)OCC(Cc1cn(C34CC5CC(CC(C5)C3)C4)nn1)C(=O)N2c1ccccc1 (centres unmarked) [2q] below 60%? No

Just wondering, is remaining activity at 10 µM of O=C1C=CC2(C=C1)OCC(Cc1cn(-c3ccc(C(F)(F)F)cc3)nn1)C(=O)N2c1ccccc1 (centres unmarked) [2f] below 60%? No
